Origin of the recorded values: patent US8772480B2

subjectOfTest: UniProtKB O75582
Assay type: biochemical
conditionInfo: MSK1; 1 μM compound concentration

{"compound": "c1cnc(Nc2cccc3[nH]ccc23)c(-c2ncnc3[nH]cnc23)c1 [Example 19]", "measurementUnits": "POC", "POC (Percent of control) MSK1": 106}
{"compound": "Cc1nc(N)nc(-c2cccnc2Nc2cccc3[nH]ccc23)n1 [Example 22]", "measurementUnits": "POC", "POC (Percent of control) MSK1": 103}
{"compound": "Cc1nc(N)nc(-c2cccnc2Nc2cccc(O)c2)n1 [Example 23]", "measurementUnits": "POC", "POC (Percent of control) MSK1": 112}
{"compound": "c1cnc(Nc2cccc3[nH]ncc23)c(-c2ncnc3[nH]cnc23)c1 [Example 18]", "measurementUnits": "POC", "POC (Percent of control) MSK1": 97}
{"compound": "CCc1cnc(Nc2ccc(OC)nc2)c(-c2nc(C)nc3[nH]cnc23)c1 [Example 74]", "measurementUnits": "POC", "POC (Percent of control) MSK1": 98}
